Molecular target: HCV NS3 helicase NS3h_1b(con1) (Hepatitis C virus genotype 1b)
Construct: truncated C-terminally His-tagged NS3 proteins lacking the N-terminal protease, called NS3h; His-tag (C); made in house
Sequence (Q9WMX2 1192-1657): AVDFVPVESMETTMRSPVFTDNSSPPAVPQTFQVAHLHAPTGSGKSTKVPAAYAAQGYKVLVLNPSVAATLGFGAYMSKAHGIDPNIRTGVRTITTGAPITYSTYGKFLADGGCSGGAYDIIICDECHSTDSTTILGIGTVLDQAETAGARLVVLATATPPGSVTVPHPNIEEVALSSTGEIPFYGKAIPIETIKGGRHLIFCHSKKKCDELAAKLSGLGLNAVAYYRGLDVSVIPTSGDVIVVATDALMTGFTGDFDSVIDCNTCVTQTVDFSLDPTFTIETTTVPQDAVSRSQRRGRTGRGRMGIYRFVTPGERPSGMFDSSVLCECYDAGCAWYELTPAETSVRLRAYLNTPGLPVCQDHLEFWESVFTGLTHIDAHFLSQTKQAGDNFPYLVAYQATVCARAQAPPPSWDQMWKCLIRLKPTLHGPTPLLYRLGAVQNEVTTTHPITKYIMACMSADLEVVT
Assay: MBHA screen of NCI mechanistic set library at 20 μM (percent inhibition, compound interference)
Type: biochemical
Settings: compounds at 20 μM, MBHA with DNA substrate; calculated from Equation 1
Procedure: All molecular beacon-based helicase assays (MBHAs) were performed according to known methods (Belon & Frick (2008) supra; Belon & Frick (2009) supra). […] Fluorescence was read before ATP (F0) addition and 30 minutes after ATP was added to 1 mM (F30) using a Tecan Infinite M200 fluorescence microplate reader with excitation and emission wavelengths set to 643 and 670 nm, respectively. […]
recorded.endpoint: Inh. (%) (Inhibition)
# number only, unit % dropped from output

stdin: Inh. (%) (Inhibition) for Cn1c(=O)[nH]c2nncnc2c1=O [Compound 99733] ?
stdout: −17.9

stdin: Also need CC(=O)[O][Hg][c]1c(C)c(C)c(C)c(C)c1C [Compound 174176] , thanks.
stdout: 6.0

stdin: Also need CCSC(=O)N1c2ccc(OC)cc2C=CC1C#N (centres unmarked) [Compound 165897] , thanks.
stdout: −14.2

stdin: Also need CCCCCCCCCCCCC(O)C(=O)O (centres unmarked) [Compound 18938] , thanks.
stdout: 1.7

stdin: Also need O=c1oc2ccccc2cc1-c1ccc([N+](=O)[O-])cc1 [Compound 215989] , thanks.
stdout: 21.9
